# pIC50 per entry for Acetylcholinesterase (Electrophorus electricus)
Please note pIC50 is a logarithmic value: minus log10 of concentration in mol/L. Answer with that number alone.

| molecule | testedSystem | pIC50 |
| --- | --- | --- |
| CC(C)=CCOc1cc(O)c2c(c1)OC(c1ccccc1Cl)CC2=O (stereo unspecified) | Acetylcholinesterase (Electrophorus electricus) | 5.67 |
| CC(C)=CCOc1cc(O)c2c(c1)OC(c1cccc(Cl)c1)CC2=O (stereo unspecified) | Acetylcholinesterase (Electrophorus electricus) | 6.00 |
| CC(C)=CCOc1ccc2c(c1)OC(c1cccc(Cl)c1)CC2=O (stereo unspecified) | Acetylcholinesterase (Electrophorus electricus) | 5.82 |
| CC(C)=CCOc1ccc2c(c1)OC(c1ccccc1Cl)CC2=O (stereo unspecified) | Acetylcholinesterase (Electrophorus electricus) | 5.50 |
| COc1ccc(C2CC(=O)c3ccc(OCC=C(C)C)cc3O2)c(OC)c1 (stereo unspecified) | Acetylcholinesterase (Electrophorus electricus) | 6.43 |
| CC(C)=CCOc1ccc2c(c1)OC(c1ccc(C)cc1)CC2=O (stereo unspecified) | Acetylcholinesterase (Electrophorus electricus) | 5.95 |
| CC(C)=CCOc1ccc2c(c1)OC(c1ccccc1)CC2=O (stereo unspecified) | Acetylcholinesterase (Electrophorus electricus) | 5.27 |
| CC(C)=CCOc1cc(O)c2c(c1)OC(c1ccc(F)cc1)CC2=O (stereo unspecified) | Acetylcholinesterase (Electrophorus electricus) | 6.62 |

**Q:** Reported pIC50, molecule CC(C)=CCOc1cc(O)c2c(c1)OC(c1ccccc1Br)CC2=O (stereo unspecified) : ____
**A:** 5.93

**Q:** One more molecule: CC(C)=CCOc1cc(O)c2c(c1)OC(c1ccccc1F)CC2=O (stereo unspecified)
**A:** 5.90

**Q:** One more molecule: CC(C)=CCOc1ccc2c(c1)OC(c1cccc(Br)c1)CC2=O (stereo unspecified)
**A:** 5.74

---

target: Cholinesterase (Equus caballus, UniProt P81908); test: Inhibition of equine serum BuChE using butyrylthiocholine chloride as substrate incubated for 15 to 20 mins by Ellman's method
Sequence (P81908 whole entry): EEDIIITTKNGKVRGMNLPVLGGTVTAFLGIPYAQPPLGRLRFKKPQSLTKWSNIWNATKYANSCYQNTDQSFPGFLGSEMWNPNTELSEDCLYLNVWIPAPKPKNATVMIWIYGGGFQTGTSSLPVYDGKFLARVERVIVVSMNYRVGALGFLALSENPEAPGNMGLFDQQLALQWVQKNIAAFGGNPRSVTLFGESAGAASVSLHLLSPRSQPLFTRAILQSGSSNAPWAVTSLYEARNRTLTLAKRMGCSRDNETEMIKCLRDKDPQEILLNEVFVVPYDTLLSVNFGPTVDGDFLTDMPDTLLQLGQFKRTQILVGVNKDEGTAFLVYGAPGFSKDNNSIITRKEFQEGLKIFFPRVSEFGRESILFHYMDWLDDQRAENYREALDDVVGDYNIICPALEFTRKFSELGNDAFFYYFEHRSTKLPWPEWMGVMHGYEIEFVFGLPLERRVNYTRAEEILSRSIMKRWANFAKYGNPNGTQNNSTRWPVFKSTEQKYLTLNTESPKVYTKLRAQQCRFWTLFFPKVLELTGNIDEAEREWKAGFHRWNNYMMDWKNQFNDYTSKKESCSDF
measuredParameter: pIC50
Please note pIC50 is a logarithmic value: minus log10 of concentration in mol/L. Answer with that number alone.

Illustrative cases are given below, each with its answer.
| compound | testedSystem | pIC50 |
| --- | --- | --- |
| CC(C)=CCOc1cc(O)c2c(c1)OC(c1ccc(O)cc1)CC2=O (stereo not drawn) | Cholinesterase (Equus caballus, UniProt P81908) | 5.27 |
| CC(C)=CCOc1cc(O)c2c(c1)OC(c1cccc(F)c1)CC2=O (stereo not drawn) | Cholinesterase (Equus caballus, UniProt P81908) | 5.29 |
| O=C1C[C@@H](c2ccc(O)cc2)Oc2cc(O)ccc21 | Cholinesterase (Equus caballus, UniProt P81908) | 4.85 |
| CC(C)=CCOc1ccc2c(c1)OC(c1ccc(Br)cc1)CC2=O (stereo not drawn) | Cholinesterase (Equus caballus, UniProt P81908) | 5.41 |
| CC(C)=CCOc1cc(O)c2c(c1)OC(c1ccc(Br)cc1)CC2=O (stereo not drawn) | Cholinesterase (Equus caballus, UniProt P81908) | 5.22 |
| CC(C)=CCOc1ccc2c(c1)OC(c1cccc(Cl)c1)CC2=O (stereo not drawn) | Cholinesterase (Equus caballus, UniProt P81908) | 5.44 |
| CC(C)=CCOc1cc(O)c2c(c1)OC(c1ccc(Cl)cc1Cl)CC2=O (stereo not drawn) | Cholinesterase (Equus caballus, UniProt P81908) | 5.16 |
| CC(C)=CCOc1ccc2c(c1)OC(c1cccc(Br)c1)CC2=O (stereo not drawn) | Cholinesterase (Equus caballus, UniProt P81908) | 5.35 |

**Q:** Reported pIC50, compound CC(C)=CCOc1cc(O)c2c(c1)OC(c1cccc(Br)c1)CC2=O (stereo not drawn) : ____
**A:** 5.28

**Q:** One more compound: CC(C)=CCOc1ccc2c(c1)OC(c1ccccc1F)CC2=O (stereo not drawn)
**A:** 5.26

**Q:** One more compound: CC(C)=CCOc1ccc2c(c1)OC(c1ccc(Cl)cc1)CC2=O (stereo not drawn)
**A:** 5.37

**Q:** One more compound: COc1ccc(C2CC(=O)c3c(O)cc(OCC=C(C)C)cc3O2)cc1 (stereo not drawn)
**A:** 5.24

**Q:** One more compound: CC(C)=CCOc1cc(O)c2c(c1)OC(c1ccccc1Cl)CC2=O (stereo not drawn)
**A:** 5.12

**Q:** One more compound: CC(C)=CCOc1cc(O)c2c(c1)OC(c1ccc(Cl)cc1)CC2=O (stereo not drawn)
**A:** 5.15

**Q:** One more compound: CC(C)=CCOc1ccc2c(c1)OC(c1ccccc1Br)CC2=O (stereo not drawn)
**A:** 5.30

**Q:** One more compound: CC(C)=CCOc1cc(O)c2c(c1)OC(c1ccccc1)CC2=O (stereo not drawn)
**A:** 5.18

**Q:** One more compound: CC(C)=CCOc1cc(O)c2c(c1)OC(c1ccc(C)cc1C)CC2=O (stereo not drawn)
**A:** 5.41

**Q:** One more compound: CC(C)=CCOc1ccc2c(c1)OC(c1ccc(Cl)cc1Cl)CC2=O (stereo not drawn)
**A:** 5.46

**Q:** One more compound: CC(C)=CCOc1cc(O)c2c(c1)OC(c1ccc(C)cc1)CC2=O (stereo not drawn)
**A:** 5.18

**Q:** One more compound: CC(C)=CCOc1ccc2c(c1)OC(c1cccc(F)c1)CC2=O (stereo not drawn)
**A:** 5.40

**Q:** One more compound: CC(C)=CCOc1cc(O)c2c(c1)OC(c1cccc(Cl)c1)CC2=O (stereo not drawn)
**A:** 5.17

---

# pIC50 per entry for UniProtKB O42275
Please note pIC50 is a logarithmic value: minus log10 of concentration in mol/L. Answer with that number alone.

Illustrative cases are given below, each with its answer.
| molecule | pIC50 |
| --- | --- |
| CC(C)=CCOc1ccc2c(c1)OC(c1ccc(Cl)cc1)CC2=O (stereo unspecified) | 5.67 |
| CC(C)=CCOc1ccc2c(c1)OC(c1ccc(O)cc1)CC2=O (stereo unspecified) | 5.51 |
| CC(C)=CCOc1cc(O)c2c(c1)OC(c1ccc(Br)cc1)CC2=O (stereo unspecified) | 6.96 |
| CC(C)=CCOc1cc(O)c2c(c1)OC(c1ccc(C)cc1)CC2=O (stereo unspecified) | 6.00 |
| CC(C)=CCOc1cc(O)c2c(c1)OC(c1ccc(C)cc1C)CC2=O (stereo unspecified) | 6.14 |
| CC(C)=CCOc1ccc2c(c1)OC(c1cccc(F)c1)CC2=O (stereo unspecified) | 5.83 |
| COc1ccc(C2CC(=O)c3c(O)cc(OCC=C(C)C)cc3O2)c(OC)c1 (stereo unspecified) | 7.05 |
| CC(C)=CCOc1cc(O)c2c(c1)OC(c1ccc(Cl)cc1Cl)CC2=O (stereo unspecified) | 5.98 |

**Q:** Reported pIC50, molecule COc1ccc(C2CC(=O)c3ccc(OCC=C(C)C)cc3O2)cc1 (stereo unspecified) : ____
**A:** 6.20

**Q:** One more molecule: CC(C)=CCOc1ccc2c(c1)OC(c1ccc(Cl)cc1Cl)CC2=O (stereo unspecified)
**A:** 5.88

**Q:** One more molecule: COc1ccc(C2CC(=O)c3c(O)cc(OCC=C(C)C)cc3O2)cc1 (stereo unspecified)
**A:** 6.57

---

assay: Selectivity index, ratio of IC50 for equine serum BuChE using butyrylthiocholine chloride as substrate to IC50 for electric eel AChE using acetylthiocholine iodide as substrate incubated for 15 to 20 mins by Ellman's method; conditions: time 15-20 min
Ratio IC50 for assorted compounds
// print number alone

| compound | experimentalValue |
| --- | --- |
| CC(C)=CCOc1cc(O)c2c(c1)OC(c1cccc(F)c1)CC2=O (stereo unspecified) | 5.53 |
| CC(C)=CCOc1cc(O)c2c(c1)OC(c1ccc(C)cc1)CC2=O (stereo unspecified) | 6.54 |
| CC(C)=CCOc1cc(O)c2c(c1)OC(c1ccccc1)CC2=O (stereo unspecified) | 2.15 |
| O=C1C[C@@H](c2ccc(O)cc2)Oc2cc(O)ccc21 | 1.55 |
| CC(C)=CCOc1cc(O)c2c(c1)OC(c1cccc(Cl)c1)CC2=O (stereo unspecified) | 6.89 |
| CC(C)=CCOc1cc(O)c2c(c1)OC(c1ccc(F)cc1)CC2=O (stereo unspecified) | 28.5 |
| CC(C)=CCOc1ccc2c(c1)OC(c1ccccc1F)CC2=O (stereo unspecified) | 2.85 |
| CC(C)=CCOc1ccc2c(c1)OC(c1ccc(Br)cc1)CC2=O (stereo unspecified) | 5.03 |

**Q:** Reported Ratio IC50, compound CC(C)=CCOc1ccc2c(c1)OC(c1ccccc1Br)CC2=O (stereo unspecified) : ____
**A:** 2.49

**Q:** One more compound: CC(C)=CCOc1ccc2c(c1)OC(c1ccc(Cl)cc1Cl)CC2=O (stereo unspecified)
**A:** 2.61

**Q:** One more compound: CC(C)=CCOc1cc(O)c2c(c1)OC(c1ccccc1Cl)CC2=O (stereo unspecified)
**A:** 3.52
